- assayProcedure: PK evaluation in CD-1 mice (plasma, brain, kidney, liver; i.v. and oral)
- Type: in vivo
- recordedConditions: male, CD-1, mouse, liver and plasma; intravenous 5 mg/kg; read-out: mean liver to plasma ratio
readoutKind: Kp

The reported value for O=C1c2ccc(Cl)cc2N/C(=N/N=C/c2cc3ccccc3s2)[C@@H]2CCCN12 in terms of Kp is 11.5

====

- assayProcedure: PK evaluation in CD-1 mice (plasma, brain, kidney, liver; i.v. and oral)
- Assay type: in vivo
- recordedConditions: male, CD-1, mouse, kidney and plasma; oral 5 mg/kg; read-out: mean kidney to plasma ratio
readoutKind: Kp
// no unit, no text: just the number

Lab book: Kp of O=C1c2ccc(Cl)cc2N/C(=N/N=C/c2cc3ccccc3s2)[C@@H]2CCCN12 noted as 7.25

====

- measurementTarget: human CB2 receptors (Homo sapiens, UniProt P34972)
- Construct: expressed in transfected cells; host or cells: CHO cells
- Sequence (P34972 whole entry): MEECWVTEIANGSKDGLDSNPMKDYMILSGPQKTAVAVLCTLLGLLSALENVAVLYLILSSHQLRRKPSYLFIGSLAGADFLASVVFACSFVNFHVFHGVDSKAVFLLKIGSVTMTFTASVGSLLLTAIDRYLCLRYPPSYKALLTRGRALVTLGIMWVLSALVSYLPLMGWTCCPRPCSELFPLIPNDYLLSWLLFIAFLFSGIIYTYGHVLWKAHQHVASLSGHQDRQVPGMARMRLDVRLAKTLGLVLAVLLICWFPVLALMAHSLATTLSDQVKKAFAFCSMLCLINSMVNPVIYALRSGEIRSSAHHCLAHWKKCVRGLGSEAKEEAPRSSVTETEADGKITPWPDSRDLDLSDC
- assayProcedure: Cannabinoid receptor [3H]CP-55,940 displacement binding assay, CB2
- recordedConditions: 1 h; 10 µM compound; CHO cell membranes, 2.5 nM radioligand; read-out: Displacement of [3H]CP-55,940 from CB2
Listing of recorded inhibition at 10 µM by entry.
The response must be a number in % with no trailing unit.

These recorded examples may help you get a feel for the data.
- O=C1c2ccccc2N/C(=N/N=C/c2ccc[nH]2)[C@@H]2CCCN12: -12.5
- Cn1cc(/C=N/N=C2/Nc3ccccc3C(=O)N3CCC[C@@H]23)c2ccccc21: 1.01
- O=C1c2ccccc2N/C(=N/N=C/c2cncs2)[C@@H]2CCCN12: 3.06
- O=C1c2ccccc2N/C(=N/N=C/c2cc3ccccc3s2)[C@@H]2CCCN12: 61
- O=C1c2cc(Br)ccc2N/C(=N/N=C/c2cc3ccccc3s2)[C@@H]2CCCN12: 36.4
- O=C1c2ccc(Cl)cc2N/C(=N/N=C/c2cc3ccccc3s2)[C@@H]2CCCN12: 84.6

In plain terms, O=C1c2ccccc2N/C(=N/N=C/c2nc3ccccc3s2)[C@@H]2CCCN12 has a documented inhibition at 10 µM of 43.3

Entry O=C1c2ccccc2N/C(=N/N=C/C23CC4CC(CC(C4)C2)C3)[C@@H]2CCCN12 ; inhibition at 10 µM = 95.6

====

- assayProcedure: PK evaluation in CD-1 mice (plasma, brain, kidney, liver; i.v. and oral)
- Type: in vivo
- recordedConditions: male, CD-1, mouse; oral 5 mg/kg, liver
readoutKind: Tmax (min)
Field: numeric (min). Do not append units.

Per the record, O=C1c2ccc(Cl)cc2N/C(=N/N=C/c2cc3ccccc3s2)[C@@H]2CCCN12 has Tmax of 45

====

- assayProcedure: PK evaluation in CD-1 mice (plasma, brain, kidney, liver; i.v. and oral)
- Format: in vivo
- recordedConditions: male, CD-1, mouse, brain and plasma; oral 5 mg/kg; read-out: mean brain to plasma ratio
readoutKind: Kp
API doc: respond with a numeric literal and nothing else, no unit.

O=C1c2ccc(Cl)cc2N/C(=N/N=C/c2cc3ccccc3s2)[C@@H]2CCCN12 yielded Kp of 4.61

====

- assayProcedure: PK evaluation in CD-1 mice (plasma, brain, kidney, liver; i.v. and oral)
- Type: in vivo
- recordedConditions: male, CD-1, mouse; oral 5 mg/kg, plasma
readoutKind: Tmax (min)
# output: bare number, implied unit min

# Tmax (compound: O=C1c2ccc(Cl)cc2N/C(=N/N=C/c2cc3ccccc3s2)[C@@H]2CCCN12 ) is 52.8
